Data provenance: patent US5461057A

Overview of reported inhibition at 10 µM across a group of molecules:
- Test system: LOX human melanoma cell adhesion to human fibronectin
- ASSAY SUMMARY: LOX melanoma cell adhesion to fibronectin
- Format: cell-based
- CONDITION DETAILS: Homo sapiens, LOX, 10 μM; read-out: % Inhibition at 10 μM
- Text: Adhesion assays were run essentially as described previously (Pai et al., J. Biomed. Res. 2: 53, 1992). […] Adherent cells were quantitated by reading the fluorescence on a Cytofluor 2300 fluorescent plate reader (Millipore) at 485 nm excitation and 530 nm emission. […]
Give the value in % but do not write % after it.

Completed entries (count: 2):
- MOLECULE: "CN1C2CCC1C1c3cc(Cl)ccc3C(O)(c3ccc(F)cc3)C1C2 (stereo not drawn)"
  EXPERIMENTAL ENDPOINT: "inhibition at 10 µM"
  MEASURED NUMBER: -12.2
- MOLECULE: "CN1C2CCC1C1c3ccccc3C(O)(c3ccccc3)C1C2 (stereo not drawn)"
  EXPERIMENTAL ENDPOINT: "inhibition at 10 µM"
  MEASURED NUMBER: 5.2

response.value for Cc1ccc(C2(O)c3ccccc3C3C4CCC(CC32)N4C)cc1 (stereo not drawn) (field: inhibition at 10 µM) = 6.6
